- MEASUREMENT_DESCRIPTION: Mouse pharmacokinetic evaluation, intraperitoneal injection after oral ABT
- Format: in vivo
- CONDITION_NOTES: ip, female CD-1 mice, 26 mpk, ABT 50 mg/kg orally 2 hours before, plasma, read-out: Peak Time Tmax
ENDPOINT_LABEL: Tmax (h)
Numbers only here, please. The scale is h.

Worked set:
COMPOUND	Tmax [h]
Nc1ncccc1C#CCc1ccc(COc2ccccn2)cc1 [WX003]	0.5
Cc1nc(N)ccc1C#CCc1ccc(COc2ccccn2)cc1 [WX006]	1.5

Would you kindly look at the next entry?
What the record says about Nc1ccc(C#CCc2ccc(COc3ccccn3)cc2)cn1 [WX004] : Tmax is 1

----------
- MEASUREMENT_DESCRIPTION: Pharmacokinetic evaluation in rats (IV, PO)
- Type: in vivo, Sprague-Dawley strain rats
- CONDITION_NOTES: Sprague-Dawley, plasma, 3 mg/kg; Rat, IV, 3 mpk
ENDPOINT_LABEL: clearance (mL/min/kg)
Numbers only here, please. The scale is mL/min/kg.

What the record says about `Nc1ccc(C#CCc2ccc(COc3ccccn3)cc2)cn1` : clearance is 7

----------
- MEASUREMENT_DESCRIPTION: Pharmacokinetic evaluation in rats (IV, PO)
- Type: in vivo, Sprague-Dawley strain rats
- CONDITION_NOTES: Sprague-Dawley, plasma, 30 mg/kg; Rat, PO, 30 mpk
ENDPOINT_LABEL: bioavailability
Mention the unit after the number when you answer.

What the record says about Nc1ccc(C#CCc2ccc(COc3ccccn3)cc2)cn1 [WX004] : bioavailability is 45%

----------
- MEASUREMENT_DESCRIPTION: Pharmacokinetic evaluation in dogs (IV, PO)
- Format: in vivo, beagle dogs
- CONDITION_NOTES: beagle, plasma, 1 mg/kg; Dog, IV, 1 mpk
ENDPOINT_LABEL: clearance (mL/min/kg)
Numbers only here, please. The scale is mL/min/kg.

What the record says about `Nc1ccc(C#CCc2ccc(COc3ccccn3)cc2)cn1` : clearance is 21

----------
- MEASUREMENT_DESCRIPTION: Pharmacokinetic evaluation in dogs (IV, PO)
- Format: in vivo, beagle dogs
- CONDITION_NOTES: beagle, plasma, 10 mg/kg; Dog, PO, 10 mpk
ENDPOINT_LABEL: Cmax (µM)
Numbers only here, please. The scale is µM.

What the record says about Nc1ccc(C#CCc2ccc(COc3ccccn3)cc2)cn1 [WX004] : Cmax is 6.5

----------
- MEASUREMENT_DESCRIPTION: Pharmacokinetic evaluation in dogs (IV, PO)
- Type: in vivo, beagle dogs
- CONDITION_NOTES: beagle, plasma, 10 mg/kg; Dog, PO, 10 mpk
ENDPOINT_LABEL: AUC (µM·h)
Numbers only here, please. The scale is µM·h.

What the record says about `Nc1ccc(C#CCc2ccc(COc3ccccn3)cc2)cn1` : AUC is 14

----------
- MEASUREMENT_DESCRIPTION: in vivo
- Parameters: species or system crab-eating macaques
- CONDITION_NOTES: crab-eating macaque (cynomolgus), monkey, iv, 0.4 mg/kg
ENDPOINT_LABEL: AUC
Mention the unit after the number when you answer.

What the record says about `Nc1ccc(C#CCc2ccc(COc3ccccn3)cc2)cn1` : AUC is 5 µM·h

----------
- MEASUREMENT_DESCRIPTION: Pharmacokinetic evaluation in dogs (IV, PO)
- Type: in vivo, beagle dogs
- CONDITION_NOTES: beagle, plasma, 10 mg/kg; Dog, PO, 10 mpk
- Description: Experimental Purpose: To evaluate the druggability of the compounds by measuring its pharmacokinetic properties in different animal species. Experimental materials: CD-1 mice, Sprague-Dawley strain rats, beagle dogs, and crab-eating macaques. Drug preparation: An appropriate amount of sample was weighed and then prepared into a clear or suspended solution. […]
ENDPOINT_LABEL: bioavailability (%)
Numbers only here, please. The scale is %.

What the record says about `Nc1ccc(C#CCc2ccc(COc3ccccn3)cc2)cn1` : bioavailability is 51

----------
- MEASUREMENT_DESCRIPTION: in vivo
- Parameters: species or system crab-eating macaques
- CONDITION_NOTES: crab-eating macaque (cynomolgus), monkey, po, 10 mg/kg
ENDPOINT_LABEL: Cmax (µM)
Numbers only here, please. The scale is µM.

What the record says about Nc1ccc(C#CCc2ccc(COc3ccccn3)cc2)cn1 [WX004] : Cmax is 9

----------
- MEASUREMENT_DESCRIPTION: Pharmacokinetic evaluation in rats (IV, PO)
- Type: in vivo, Sprague-Dawley strain rats
- CONDITION_NOTES: Sprague-Dawley, plasma, 30 mg/kg; Rat, PO, 30 mpk
ENDPOINT_LABEL: Tmax (h)
Numbers only here, please. The scale is h.

What the record says about Nc1ccc(C#CCc2ccc(COc3ccccn3)cc2)cn1 [WX004] : Tmax is 1.5

----------
- MEASUREMENT_DESCRIPTION: Pharmacokinetic evaluation in rats (IV, PO)
- Assay type: in vivo, Sprague-Dawley strain rats
- CONDITION_NOTES: Sprague-Dawley, plasma, 3 mg/kg; Rat, IV, 3 mpk
- Source text: Experimental Purpose: To evaluate the druggability of the compounds by measuring its pharmacokinetic properties in different animal species. Experimental materials: CD-1 mice, Sprague-Dawley strain rats, beagle dogs, and crab-eating macaques. Drug preparation: An appropriate amount of sample was weighed and then prepared into a clear or suspended solution. […]
ENDPOINT_LABEL: Vd
Mention the unit after the number when you answer.

What the record says about `Nc1ccc(C#CCc2ccc(COc3ccccn3)cc2)cn1` : Vd is 1.8 L/kg

----------
- MEASUREMENT_DESCRIPTION: in vivo
- Parameters: species or system crab-eating macaques
- CONDITION_NOTES: crab-eating macaque (cynomolgus), monkey, po, 10 mg/kg
ENDPOINT_LABEL: Tmax

What the record says about `Nc1ccc(C#CCc2ccc(COc3ccccn3)cc2)cn1` : Tmax is 4 h

----------
- MEASUREMENT_DESCRIPTION: Mouse pharmacokinetic evaluation, intraperitoneal injection after oral ABT
- Format: in vivo
- CONDITION_NOTES: ip, female CD-1 mice, 6 mpk, ABT 50 mg/kg orally 2 hours before, plasma, read-out: Peak Concentration Cmax
ENDPOINT_LABEL: Cmax (µM)
Numbers only here, please. The scale is µM.

Nc1ncc(C#CCc2ccc(COc3ccccn3)cc2)cc1F 4.7
Cc1cc(C#CCc2ccc(COc3ccccn3)cc2)cnc1N 4.7

Would you kindly look at the next entry?
What the record says about `Nc1ccc(C#CCc2ccc(Oc3cccc(F)n3)cc2)cn1` : Cmax is 11.4

----------
- MEASUREMENT_DESCRIPTION: in vivo
- Design: species or system crab-eating macaques
- CONDITION_NOTES: monkey, iv, 0.4 mg/kg
ENDPOINT_LABEL: half-life (h)
Numbers only here, please. The scale is h.

What the record says about `Nc1ccc(C#CCc2ccc(COc3ccccn3)cc2)cn1` : half-life is 3.5

----------
- MEASUREMENT_DESCRIPTION: Pharmacokinetic evaluation in mice (IV)
- Type: in vivo, CD-1 mice
- CONDITION_NOTES: CD-1, plasma, 1 mg/kg, Mouse, 1 mpk
ENDPOINT_LABEL: Vd (L/kg)
Numbers only here, please. The scale is L/kg.

What the record says about `Nc1ccc(C#CCc2ccc(COc3ccccn3)cc2)cn1` : Vd is 5.2

----------
- MEASUREMENT_DESCRIPTION: Pharmacokinetic evaluation in rats (IV, PO)
- Type: in vivo, Sprague-Dawley strain rats
- CONDITION_NOTES: Sprague-Dawley, plasma, 3 mg/kg; Rat, IV, 3 mpk
ENDPOINT_LABEL: AUC (µM·h)
Numbers only here, please. The scale is µM·h.

What the record says about Nc1ccc(C#CCc2ccc(COc3ccccn3)cc2)cn1 [WX004] : AUC is 22

----------
- MEASUREMENT_DESCRIPTION: Pharmacokinetic evaluation in rats (IV, PO)
- Assay type: in vivo, Sprague-Dawley strain rats
- CONDITION_NOTES: Sprague-Dawley, plasma, 30 mg/kg; Rat, PO, 30 mpk
ENDPOINT_LABEL: AUC (µM·h)
Numbers only here, please. The scale is µM·h.

What the record says about `Nc1ccc(C#CCc2ccc(COc3ccccn3)cc2)cn1` : AUC is 95

----------
- System: Candida albicans WX-CA009
- MEASUREMENT_DESCRIPTION: Minimum inhibitory concentration (MIC) test against fungi
- Type: cell-based
- CONDITION_NOTES: Candida albicans, WXCA009, 24 h, ≥50% growth inhibition by eye, three independent experiments, read-out: MIC
- Description: To test the minimum inhibitory concentration (MIC) and minimum effective concentration (MEC) of the drug against fungi. Experimental strains: Candida parapsilosis ATCC 22019; Candida albicans ATCC MYA-2876; Candida albicans WX-CA009; Candida glabrata ATCC15126; Candida tropicalis ATCC 750; Test medium: RPMI1640 (containing 0.165 M MOPS, pH7.0) On the day of the experiment, the compound in the bottle was dissolved in 100% DMSO to a stock solution concentration of 6.24 mg/mL. […]
ENDPOINT_LABEL: MIC
Mention the unit after the number when you answer.

Worked set:
Nc1ccc(C#CCc2ccc(COc3ccccn3)cc2)c(F)n1 0.1 µg/mL
Nc1ncccc1C#CCc1ccc(COc2ccccn2)cc1 0.0125 µg/mL
Cc1nc(N)ccc1C#CCc1ccc(COc2ccccn2)cc1 0.05 µg/mL
Nc1ccc(C#CCc2ccc(COc3ccccn3)cc2)cn1 0.025 µg/mL
Nc1ncc(C#CCc2ccc(COc3ccccn3)cc2)cc1F 0.05 µg/mL
Cc1cc(C#CCc2ccc(COc3ccccn3)cc2)cnc1N 0.05 µg/mL

What the record says about `Nc1ccc(C#CCc2ccc(Oc3cccc(F)n3)cc2)cn1` : MIC is 0.05 µg/mL
